I'd be grateful if you could share measured phosphorylation enrichment for these entries.
target: FGFR3 (UniProt P22607); test: phosphorylation enrichment, bacterial display (enrichment ratio); higher = better substrate or ligand; peptides without Tyr show the background;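 note: 11-residue human phosphosite peptides and single-mutation variants displayed on the E. coli surface, counted by deep sequencing, each peptide's frequency after selection divided by its frequency in the unselected input library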;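 note: frequency after pTyr selection over input frequency; kinase dosed for 20-30% of maximal phosphorylation in three min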
Sequence (P22607 whole entry, looked up): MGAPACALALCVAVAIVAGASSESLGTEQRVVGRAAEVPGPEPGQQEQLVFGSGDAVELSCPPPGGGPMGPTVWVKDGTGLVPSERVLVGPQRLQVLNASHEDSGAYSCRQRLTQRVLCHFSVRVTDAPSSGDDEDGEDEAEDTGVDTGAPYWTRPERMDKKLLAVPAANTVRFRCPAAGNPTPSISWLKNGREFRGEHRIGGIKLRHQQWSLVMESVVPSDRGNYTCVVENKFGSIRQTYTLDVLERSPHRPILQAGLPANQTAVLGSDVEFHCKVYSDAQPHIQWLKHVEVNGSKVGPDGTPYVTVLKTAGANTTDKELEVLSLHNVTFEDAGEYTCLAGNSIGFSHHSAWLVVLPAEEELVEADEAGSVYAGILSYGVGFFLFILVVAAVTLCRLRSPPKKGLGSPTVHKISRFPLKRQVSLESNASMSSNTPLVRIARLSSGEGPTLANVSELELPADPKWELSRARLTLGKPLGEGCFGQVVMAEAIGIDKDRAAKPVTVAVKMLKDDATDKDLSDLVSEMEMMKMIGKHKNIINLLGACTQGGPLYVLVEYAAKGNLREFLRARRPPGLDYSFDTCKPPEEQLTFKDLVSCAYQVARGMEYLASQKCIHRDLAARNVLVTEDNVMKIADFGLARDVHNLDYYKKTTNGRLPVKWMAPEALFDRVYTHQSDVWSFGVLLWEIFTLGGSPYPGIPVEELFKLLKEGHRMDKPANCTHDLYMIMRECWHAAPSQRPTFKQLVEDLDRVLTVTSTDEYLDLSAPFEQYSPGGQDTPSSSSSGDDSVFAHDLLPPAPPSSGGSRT
Answers are plain numbers.

Example entries begin here.
[[record]]
item_sequence = "TESNNYIYKTL [FAM83B_Y637]"
reported_value = 0.64

[[record]]
item_sequence = "FKGIVYSVSSD [DCX_Y70_A71S]"
reported_value = 0.666

[[record]]
item_sequence = "GLDGSYLLRDS [SH2D1A_Y29]"
reported_value = 0.464

[[record]]
item_sequence = "DKGTLYIAEQI [PLBD1_Y375_V377A]"
reported_value = 0.666

[[record]]
item_sequence = "KKRSSYGNSSD [SELENOK_Y52_R50S]"
reported_value = 0.476

[[record]]
item_sequence = "YTHSDYQYGQR [PKP2_Y166_S169G]"
reported_value = 0.606

[[record]]
item_sequence = "TYAVSYLPDMS [FLNC_Y1602_T1599A]"
reported_value = 0.576

[[record]]
item_sequence = "TFEFRYLEDRD [CNOT3_Y746_YF]"
reported_value = 0.826

[[record]]
item_sequence = "IVFVICDEVVK [SLC25A1_Y297_Y297C]"
reported_value = 0.833

[[record]]
item_sequence = "VRTGIYHGREP [PIK3CA_Y361_G364R]"
reported_value = 0.46


Give measured phosphorylation enrichment for every item shown.
1. GAEIVYKSPVV [MAPT_Y711]
2. KLIETYSSKNF [PLP1_Y50_F51S_YF]
3. RSFSPYDFQPC [TNS1_Y796_YF]
4. AHARMYGVLPW [PLP1_Y207_D203H]

Data returned:
0.672
0.46
0.788
0.421
